# Tested on: PPARg:RXRa DBDmut IVT, anti-RXR (DBD mutation: RXRa K156A/R161A, NR concentration 270 nM, RXRa partner concentration 90 nM)
# test_description: PBM binding z-score (relative to random genomic background probes); higher = stronger binding; sequences stand for … in GC…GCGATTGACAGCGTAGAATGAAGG
assay_readout: PBM binding z-score

Field: example entries. Status: answers known.
> print(dat)
                       chain.sequence        assay.readout  obs.value
1  CCTCGGAGGACAGAGGGTCAGAGCTGTCCGCTTT  PBM binding z-score     -0.421
2  CCATACGGGTCAAGGTTATAGCACGGGTGGTACG  PBM binding z-score        1.2
3  ACAGACAGGTGCTGAAGGTAACTCAGGCTATCAT  PBM binding z-score     -0.133
4  TAGCCTACGTCATTCAGGGGCCAGTATAGAAAGC  PBM binding z-score     -0.459
5  CGTACTGGGCCAAAAAGGTCATTGATGCCGATAA  PBM binding z-score       4.13
6  CATACAGGGTCAGCTAGACCAGAGTAGGGACGGC  PBM binding z-score       1.02

Return reported PBM binding z-score values for all items listed beneath this line.
1. CCGAGTCGGTTATGGGGCATTCAGGCAACGGTGA
2. GTACCAAGGTGAATTGGTCGTTGATGAGTAGGCG
3. TTACCAAGGTGAGGTGAGGTCGTTGATCCAACTC
4. CTACCAAGGTGAACAAGGTCGTTCATTACTATTC
5. AGTAGTTGGTCAGCTGAGGTCACACACAATTCGG
6. CAAACTAGCTCAAGAGGTCAAAGTCCGCTTCCCG

Result string:
1. 0.293
2. 1.6
3. 1.36
4. 4.04
5. 1.18
6. 0.982

Return reported PBM binding z-score values for all items listed beneath this line.
1. GGGACGAGGGCATTCGAGTTGATAGCATGGCGAT
2. GCCTACGGGTCAAAGGTTATAGCATGAATAGAAT
3. GCGACTGGGGCATCAGCAGGTTACCATGACTTAA
4. CGTCCAAGGTCAGAGGTCAGTGAAGAGATGACGG
5. GCTAGTTGGTCAGTAAAAGGTCGCACACCGGTCG

Result string:
1.51
2.12
3.94
2.44
0.512

Return reported PBM binding z-score values for all items listed beneath this line.
1. GCTGCTAGGTGAGGTTGGTCAGCTAACGGGTACG
2. TCTGCTAGGACAACGATGGTCAGCTAATCTGCTA
3. CCTAGTTGGTCAGGAGGTCACAGACCGGATATGA

Result string:
2.07
0.636
1.33

Return reported PBM binding z-score values for all items listed beneath this line.
1. TCTCTGAGGACACGAAGGTCAGAGCTTTCCAGAG
2. CGTCAAGGTTCAAGGTAACGTAACAGAAAGCAGC
3. CGAATTAGGTCATTGACAGGACAGTGAATAGTAA
4. CCTTACGGATCACGAGGTTATAGCACGACGAGCG
5. CGTTACGGGTCACGAGGTTATAGCACGACGAGCG
6. AATACAGGGTCATCGTAGGCCACAGTACGCACAG

Result string:
1. 1.47
2. -0.0787
3. 8.21
4. 0.221
5. 4.5
6. 3.1

* * *

For each of the sequences below, state its PBM binding z-score.
# Tested on: PPARg:RXRa 90nM:30nM, anti-RXR (NR concentration 90 nM, RXRa partner concentration 30 nM)
# test_description: PBM binding z-score (relative to random genomic background probes); higher = stronger binding; sequences stand for … in GC…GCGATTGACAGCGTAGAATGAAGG
Give bare numbers.

> print(dat)
                       chain.sequence  obs.value
1  TCTCGGAGGACACGAAAGGTCAGATCTCGACATC       2.77
2  CGTCAAAGTACAAGGTAACGTAACAGAAAGCAGC     0.0776
3  CCGACTGGGGCATGGTTACCATAACGCACAGCCA      0.273
4  CGTCCAAGGTCAGAGGAGGTCAGTGAAGACAGAT       2.48
5  GATACAGGGTCAGCTAGAGGCCAAAGTATGGAAA       2.36

Return reported PBM binding z-score values for all items listed beneath this line.
1. CCGGACAGGTGAAAGGTAACTCAGTCTGGTACGC
2. ACTCGAAGGACAAAGGTCAGAGCTACGCCAGTGA
3. TAGCCTAGGTCATGCGGTCCAGTATAGTGTCGGC
4. CGTCCAAGGTGAAGGTCAGTGAAAGAGACTCGAA
5. GGAACGAGGGCATTCCAGTTGATAGCATGGCGAT
6. CCTATTAGTTGACCATAAGGGCATCCGAAGCTCG
7. GCTCGGAGGACAAGGTCAGAGGTTTGTCCGTAGA

Result string:
1. 5.45
2. 6.39
3. 1.3
4. 1.96
5. 0.301
6. 0.145
7. 2.08

* * *

# Tested on: VDR homodimer (NR concentration 270 nM)
# test_description: PBM binding z-score (relative to random genomic background probes); higher = stronger binding; sequences stand for … in GC…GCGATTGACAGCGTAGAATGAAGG
Label scheme, based on PBM binding z-score: bottom end (below 0.06), midrange (0.06 to below 1), top end (1 or more)

> print(dat)
                       chain.sequence  assigned.category
1  TCGAGTAGGTTAGTAGGGGCATTCAGCCAACATA           midrange
2  CCTTACGGGTCACTCCAGGATATAGCATCGGAGT            top end
3  TCTTGAAGATCAAGCAGGTTAAGAAAGCCTGAGT         bottom end
4  TCATCTAGGTAAAGGTGAAAGTCGAACGATATGA           midrange

Query string: Returns: class label. Input: "CCTGCCAGGTCAATGGTCAGCTAAAGCAGCTCGC"
Result string: midrange

Query string: Returns: class label. Input: "CGAACTAGGACAAGGACAGTGAATCTCCGCACGC"
Result string: bottom end

Query string: Returns: class label. Input: "TCTATTTGGTCAAAGGTCACACACTCGAAATGCG"
Result string: top end

Query string: Returns: class label. Input: "ACTAGCAGACCAAGTTTGGGTCACTCAAACAAAG"
Result string: bottom end

Query string: Returns: class label. Input: "CCGACTGAGGCATAAGGTTACCATAAGCCAGCCC"
Result string: midrange

* * *

# Test system: LXRb homodimer (NR concentration 270 nM)
# test_description: PBM binding z-score (relative to random genomic background probes); higher = stronger binding; sequences stand for … in GC…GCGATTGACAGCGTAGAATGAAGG
For each of the sequences below, state its PBM binding z-score.
One number for each entry.

Field: example entries. Status: answers known.
> print(dat)
                       chain.sequence  obs.value
1  TCAGACAGGTGAAGGTAACTTAGGTACGCAGTCG    -0.0603
2  CCAGACAGGTGACAAGGTAACTCAGCCTCGATTA     -0.466
3  ATCTCTAGGTAACCAAGTTCAGTGGATGCCGAAC      0.373
4  TCGAGTAGTTTAGTCGGGGCATTCAGCCAACATA      -0.38
5  TCTAGTTGGCCAAAGGTCACACACTCGAAATGCG       1.17

Return reported PBM binding z-score values for all items listed beneath this line.
1. CCTATTAGTGGACCATAAGGGCAACCGAAGCTCG
2. GATACAGGGTCAGCTAAAGGCCAGAGTATGGAAA
3. ATCTCTAGGTAAGACTCAGTGCAGTGAAGAACGC
4. CGTCCAAGGTCAGAGAGGTCAGGGAATGCCGAGT

Result string:
[0.134, -0.758, 0.687, 0.359]

Return reported PBM binding z-score values for all items listed beneath this line.
1. TCTAGTTGGTCAAAGGTCAGACACTCGAAATGCG
2. TCTAGCAGGCCAGACGGTCACTCAAGAGGTACGG
3. GCTAGCAGGCAATTTGGGTCACTCAATGACGGGC

Result string:
1. 1.43
2. -0.934
3. -0.943

* * *

# System: LXRa homodimer (NR concentration 270 nM)
# test_description: PBM binding z-score (relative to random genomic background probes); higher = stronger binding; sequences stand for … in GC…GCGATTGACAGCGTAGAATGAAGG
For each of the sequences below, state its PBM binding z-score.
Numbers only.

Field: example entries. Status: answers known.
> print(dat)
                       chain.sequence                               test.system        assay.readout  obs.value
1  GCTATTAGTTGAAGGGGCAACCGAATGATTCTCG  LXRa homodimer (NR concentration 270 nM)  PBM binding z-score     -0.118
2  GCTGCTAGGGCAGGTTGGTCAGCTAACGGGTACG  LXRa homodimer (NR concentration 270 nM)  PBM binding z-score     -0.652
3  TCTGTTAGGTCAGTTGGTCAGCTAACGAGCTGCC  LXRa homodimer (NR concentration 270 nM)  PBM binding z-score      0.264
4  ACACCAAGGTGATCGTGAGGTCGTTGATACTAAC  LXRa homodimer (NR concentration 270 nM)  PBM binding z-score      0.495
5  GGAACGAGGGCAAAGCTGATAGCATCTGTCGACG  LXRa homodimer (NR concentration 270 nM)  PBM binding z-score     -0.605

Okay, next one:
Reported PBM binding z-score of "ACAGACAGGTGATGAAGGTGACTCAGGCTATCAT" : -0.267
